Reference source: patent US5808109A

A collection of compounds and their measured pIC50
- Tested on: human complement
- protocol_details: Inhibition of complement-mediated hemolysis, human serum, sensitized sheep erythrocytes
- Type: biochemical
- run_conditions: Table XIV; read-out: Classical pathway IH50
pIC50: −log10 of the molar value. Counter-ions that a name gives are not always drawn.
observation_type: pIC50

compound: CC1CCC2C(C)(C)C(O)C(O)CC2(C)C12Cc1c(O)cc(C(=O)O)c(C=O)c1O2 (stereo not drawn) [K76COOH, reference compound]
assayed_target: human complement
observation_type: pIC50
measured_number: 3.24

compound: COc1cc(C(=O)O)cc2c1CC1(CCCCC1)O2 [Compound 44a, SODIUM SALT]
assayed_target: human complement
observation_type: pIC50
measured_number: 3.28

compound: COc1cc(C(=O)O)c(C=O)c2c1CC1(CCCCC1)O2 [Compound 68]
assayed_target: human complement
observation_type: pIC50
measured_number: 3.80

* * *

- protocol_details: Viability of effector cells by trypan blue exclusion
- Type: cell-based
- run_conditions: human, peripheral blood mononuclear cells, 0.8 mM

compound: COc1ccc(C(=O)O)c2c1CC1(CCCCC1)O2 [Compound 11a]
viability at 800 µM, %: 95

* * *

- protocol_details: Inhibition of natural killer activity, 51Cr release cytotoxicity assay
- Format: cell-based
- run_conditions: human, k562 cells; 3.2 mM; read-out: Spont. Release Target Cells Alone (K562)
observation_type: % spontaneous 51Cr release of K562 target cells alone at 4 h, 3200 µM

compound: COc1ccc(C(=O)O)c2c1CC1(CCCCC1)O2 [Compound 11a]
result: 5%

* * *

- System: human complement
- protocol_details: Inhibition of complement-mediated hemolysis, human serum, sensitized sheep erythrocytes
- Type: biochemical
- run_conditions: Table XI; human serum diluted 1 to 100; read-out: IH50 Mean
Counter-ions that a name gives are not always drawn.
Let's look at some compounds and their measured log10 IC50.
observation_type: log10 IC50 (log10 of the value in µM)

compound: COc1ccc(C(=O)O)c2c1CC1(CCCCC1)O2 [Compound 11a]
assayed_target: human complement
measured_number: 3.12

compound: COc1cc(C(=O)O)c(C(=O)O)c2c1CC1(CCCCC1)O2
assayed_target: human complement
measured_number: 2.90

compound: COc1cc(C(=O)O)cc2c1CC1(CCCCC1)O2 [Compound 44a, SODIUM SALT]
assayed_target: human complement
measured_number: 2.72

compound: COc1cc(C=O)c(C(=O)O)c2c1CC1(CCCCC1)O2
assayed_target: human complement
measured_number: 3.22

compound: COc1cc(C(=O)O)c(C=O)c2c1CC1(CCCCC1)O2
assayed_target: human complement
measured_number: 2.21

compound: CC1CCC2C(C)(C)C(O)C(O)CC2(C)C12Cc1c(O)cc(C(=O)O)c(C=O)c1O2 (stereo not drawn) [K76COOH, reference compound]
assayed_target: human complement
measured_number: 2.76

* * *

- protocol_details: Viability of effector cells by trypan blue exclusion
- Assay type: cell-based
- run_conditions: human, peripheral blood mononuclear cells, 3.2 mM

compound: COc1ccc(C(=O)O)c2c1CC1(CCCCC1)O2 [Compound 11a]
unit_info: %
viability at 3200 µM: 76

* * *

- protocol_details: Inhibition of natural killer activity, 51Cr release cytotoxicity assay
- Assay type: cell-based
- run_conditions: human, k562 cells; 6.4 mM; read-out: Spont. Release Target Cells Alone (K562)
observation_type: % spontaneous 51Cr release of K562 target cells alone at 4 h, 6400 µM (%)

compound: COc1ccc(C(=O)O)c2c1CC1(CCCCC1)O2 [Compound 11a]
measured_number: 23
